Listed compounds paired with reported pIC50
Biological target: ULK1 kinase (Homo sapiens)
Sequence (O75385 with tags, fused parts or gaps): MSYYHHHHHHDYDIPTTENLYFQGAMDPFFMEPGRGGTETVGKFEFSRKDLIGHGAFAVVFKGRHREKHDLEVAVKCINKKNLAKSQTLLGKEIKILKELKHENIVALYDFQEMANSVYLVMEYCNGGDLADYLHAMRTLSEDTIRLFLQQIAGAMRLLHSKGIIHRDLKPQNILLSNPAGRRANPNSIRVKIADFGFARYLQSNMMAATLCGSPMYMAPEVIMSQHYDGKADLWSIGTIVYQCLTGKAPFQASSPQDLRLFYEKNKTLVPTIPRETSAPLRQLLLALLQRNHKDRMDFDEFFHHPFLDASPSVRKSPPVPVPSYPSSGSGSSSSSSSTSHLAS
pIC50: −log10 of the molar value.
experimental_readout: pIC50

[[record]]
compound = "CCc1cc(N2CCN(C)CC2)ccc1Nc1ncc(C(F)(F)F)c(NCCCN2CCCCC2=O)n1 [Example 11]"
experimental_readout = "pIC50"
obs_value = "7.60 to 9.00"

[[record]]
compound = "Cc1cc(N2CCN(C)CC2)ccc1Nc1ncc(C(F)(F)F)c(NCCCN2CCOCCC2=O)n1 [Example 65]"
experimental_readout = "pIC50"
obs_value = "7.60 to 9.00"

[[record]]
compound = "CCN1CCN(c2ccc(Nc3ncc(C(F)(F)F)c(NCCCN4CCCCC4=O)n3)c(C3CC3)c2)CC1 [Example 13]"
experimental_readout = "pIC50"
obs_value = "7.60 to 9.00"

[[record]]
compound = "CCc1cc(N2CCN(CC)CC2)ccc1Nc1ncc(C(F)(F)F)c(NCCCN2CCCCC2=O)n1 [Example 12]"
experimental_readout = "pIC50"
obs_value = "7.60 to 9.00"

[[record]]
compound = "Cc1cc(N2CCNCC2)ccc1Nc1ncc(C(F)(F)F)c(NCCCN2CCCC2=O)n1 [Example 3]"
experimental_readout = "pIC50"
obs_value = "6.30 to 7.00"

[[record]]
compound = "O=C1CCOCCN1CCCNc1nc(Nc2ccc(N3CCOCC3)cc2C2CC2)ncc1C(F)(F)F [Example 71]"
experimental_readout = "pIC50"
obs_value = "7.60 to 9.00"

[[record]]
compound = "CCN1CCN(c2ccc(Nc3ncc(C(F)(F)F)c(NCCCN4CCOCCC4=O)n3)c(C(C)C)c2)CC1 [Example 73]"
experimental_readout = "pIC50"
obs_value = "7.60 to 9.00"

[[record]]
compound = "Cc1cc(N2CCN(C)CC2)ccc1Nc1ncc(C(F)(F)F)c(NCCCN2CCCCC2=O)n1 [Example 20]"
experimental_readout = "pIC50"
obs_value = "7.60 to 9.00"

[[record]]
compound = "Cc1cc(N2CCN(C)CC2)ncc1Nc1ncc(C(F)(F)F)c(NCCCN2CCCCC2=O)n1 [Example 91]"
experimental_readout = "pIC50"
obs_value = "7.00 to 7.60"

